System: 11β-HSD1 in primary human aortic smooth muscle cells (AoSMC) (Homo sapiens, UniProt P28845)
Construct: containing 12 ng/mL hTNFα to induce expression of 11β-HSD1; endogenous in cells
Sequence (P28845 whole entry): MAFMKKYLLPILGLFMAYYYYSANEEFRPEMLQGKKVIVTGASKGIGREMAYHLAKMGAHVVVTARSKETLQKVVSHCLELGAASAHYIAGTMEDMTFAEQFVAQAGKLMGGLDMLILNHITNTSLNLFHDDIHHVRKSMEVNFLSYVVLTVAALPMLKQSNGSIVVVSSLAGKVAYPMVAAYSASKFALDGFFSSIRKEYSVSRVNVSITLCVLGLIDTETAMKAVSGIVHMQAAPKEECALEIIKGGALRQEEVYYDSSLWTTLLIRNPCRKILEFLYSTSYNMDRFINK
Assay overview: Human Aortic Smooth Muscle Cell Assay (cortisone to cortisol conversion)
Recorded conditions: hTNFα-induced 11β-HSD1, cortisol by time resolved immunoassay

Compound | IC50 / nM
O=C1[C@H](Cc2c(Cl)cc(-c3ccc(N4CCOCC4)cc3)cc2Cl)CCN1C1CCc2[nH]cnc2C1 (some centres unmarked) | 0.6
O=C(c1ccc(-c2cc(Cl)c(C[C@@H]3CCN(C4CCc5nc[nH]c5C4)C3=O)c(Cl)c2)cc1)N1CCC(C(F)(F)F)CC1 (some centres unmarked) | 4.5
O=C1C(Cc2c(Cl)cc(-c3ccc(F)cc3)cc2Cl)CCN1C1CCc2[nH]cnc2C1 (centres unmarked) | 3.2
O=C1[C@H](Cc2c(Cl)cc(-c3ccc(N4CCOCC4)nc3F)cc2Cl)CCN1C1CCc2[nH]cnc2C1 (some centres unmarked) | 3
O=C1C(Cc2c(Cl)cc(-c3ccc(Cl)cc3)cc2Cl)CCN1C1CCc2nc[nH]c2C1 (centres unmarked) | 6.8
